- system-under-test: hNR2B (Homo sapiens, UniProt Q05586+Q13224)
- Construct: expressed in transfected cells; host or cells: Xenopus laevis oocytes, cRNA-injected
- Sequence (Q13224 27-1484, other chains not shown): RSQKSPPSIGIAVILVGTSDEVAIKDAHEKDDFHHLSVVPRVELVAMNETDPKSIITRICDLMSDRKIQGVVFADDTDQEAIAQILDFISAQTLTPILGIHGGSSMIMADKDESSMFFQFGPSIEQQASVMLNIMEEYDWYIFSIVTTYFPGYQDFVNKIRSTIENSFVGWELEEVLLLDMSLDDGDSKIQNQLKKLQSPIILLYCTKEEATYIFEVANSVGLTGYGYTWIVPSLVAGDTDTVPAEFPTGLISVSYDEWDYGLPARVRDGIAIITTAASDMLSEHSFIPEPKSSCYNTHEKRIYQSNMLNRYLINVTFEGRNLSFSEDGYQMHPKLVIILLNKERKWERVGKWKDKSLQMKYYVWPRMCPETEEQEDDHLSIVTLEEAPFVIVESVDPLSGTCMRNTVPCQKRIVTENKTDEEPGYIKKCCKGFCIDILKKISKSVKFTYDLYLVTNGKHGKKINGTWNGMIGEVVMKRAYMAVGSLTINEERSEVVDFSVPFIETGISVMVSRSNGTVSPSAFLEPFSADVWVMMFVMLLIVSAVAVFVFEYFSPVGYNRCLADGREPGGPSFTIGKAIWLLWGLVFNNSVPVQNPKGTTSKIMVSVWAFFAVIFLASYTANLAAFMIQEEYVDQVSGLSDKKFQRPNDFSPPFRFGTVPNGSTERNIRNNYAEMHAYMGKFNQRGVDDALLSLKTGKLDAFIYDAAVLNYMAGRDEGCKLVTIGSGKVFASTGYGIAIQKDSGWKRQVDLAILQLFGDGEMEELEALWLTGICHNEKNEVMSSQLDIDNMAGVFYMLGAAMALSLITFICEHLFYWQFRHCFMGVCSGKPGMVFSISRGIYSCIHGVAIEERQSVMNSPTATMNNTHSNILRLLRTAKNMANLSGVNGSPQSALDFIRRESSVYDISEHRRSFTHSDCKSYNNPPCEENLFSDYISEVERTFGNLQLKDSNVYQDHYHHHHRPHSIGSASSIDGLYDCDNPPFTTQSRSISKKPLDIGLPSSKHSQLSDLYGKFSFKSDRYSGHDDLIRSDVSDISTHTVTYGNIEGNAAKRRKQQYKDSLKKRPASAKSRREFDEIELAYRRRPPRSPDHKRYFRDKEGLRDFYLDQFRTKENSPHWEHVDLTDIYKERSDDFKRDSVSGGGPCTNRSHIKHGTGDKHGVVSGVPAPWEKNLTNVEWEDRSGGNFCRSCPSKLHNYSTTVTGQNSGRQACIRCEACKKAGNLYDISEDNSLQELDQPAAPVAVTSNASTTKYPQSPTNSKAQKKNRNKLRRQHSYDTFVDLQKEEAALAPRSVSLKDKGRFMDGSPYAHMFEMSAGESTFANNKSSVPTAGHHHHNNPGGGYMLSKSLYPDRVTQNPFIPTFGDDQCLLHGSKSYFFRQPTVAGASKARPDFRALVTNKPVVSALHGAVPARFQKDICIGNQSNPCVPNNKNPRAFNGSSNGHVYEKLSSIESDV
- assay-explanation: Electrophysiology NMDA receptor experiments: two electrode voltage-clamp in Xenopus laevis oocytes, hNR2B IC50
- Type: cell-based
- stated-conditions: hNR2B activity class, 50 μM glutamate, 30 μM glycine, read-out: Activity
Each entry below carries its reported IC50.

Examples with answers:
{"compound": "O=c1[nH]c2ccc(OCc3nnc(Nc4ccc(Cl)c(Cl)c4)o3)cc2[nH]1", "system-under-test": "hNR2B (Homo sapiens, UniProt Q05586+Q13224)", "result-value": "< 200 nM"}
{"compound": "O=c1ccc2cc(C3CC3c3nnc(Nc4ccc(OC(F)F)c(Cl)c4)o3)ccc2[nH]1 (stereo not drawn)", "system-under-test": "hNR2B (Homo sapiens, UniProt Q05586+Q13224)", "result-value": "< 200 nM"}
{"compound": "CCOC(=O)Cc1ccc(Nc2nnc(COc3ccc4c(c3)CCC(=O)N4)o2)cc1", "system-under-test": "hNR2B (Homo sapiens, UniProt Q05586+Q13224)", "result-value": "> 10000 nM"}
{"compound": "O=C1CCc2cc(OCc3nnc(NCc4ccc(Cl)c(Cl)c4)o3)ccc2N1", "system-under-test": "hNR2B (Homo sapiens, UniProt Q05586+Q13224)", "result-value": "< 200 nM"}
{"compound": "O=c1ccc2cc(OCc3nnc(Nc4ccc(OC(F)(F)F)c(Cl)c4)o3)ccc2[nH]1", "system-under-test": "hNR2B (Homo sapiens, UniProt Q05586+Q13224)", "result-value": "< 200 nM"}

Considering CCc1ccc(Nc2noc(CCc3ccc4[nH]ncc4c3)n2)cc1Cl , its IC50 with hNR2B (Homo sapiens, UniProt Q05586+Q13224) was recorded as 201 to 1000 nM

Considering CCc1ccc(Nc2noc(CCc3ccc4[nH]ncc4c3)n2)cc1F , its IC50 with hNR2B (Homo sapiens, UniProt Q05586+Q13224) was recorded as < 200 nM

Considering O=c1ccc2cc(OCc3nnc(Nc4cc(Cl)ccc4Cl)o3)ccc2[nH]1 , its IC50 with hNR2B (Homo sapiens, UniProt Q05586+Q13224) was recorded as > 10000 nM

----------
Each entry below carries its reported IC50.
- system-under-test: hNR2B (Homo sapiens, UniProt Q05586+Q13224)
- Construct: expressed in transfected cells; host or cells: Xenopus laevis oocytes, cRNA-injected
- assay-explanation: Electrophysiology NMDA receptor experiments: two electrode voltage-clamp in Xenopus laevis oocytes, hNR2B IC50
- Format: cell-based
- stated-conditions: hNR2B activity class, 50 μM glutamate, 30 μM glycine, read-out: Activity

Examples with answers:
{"query-smiles": "FC(F)(F)c1n[nH]c2ccc(CCc3nnc(Nc4ccc(Cl)c(Cl)c4)o3)cc12", "IC50": "> 10000 nM"}
{"query-smiles": "Oc1ccc(CCc2nc(Nc3ccc(Cl)cc3)no2)cc1", "IC50": "201 to 1000 nM"}
{"query-smiles": "O=c1ccc2cc(OCc3nc(Nc4ccc(OC(F)F)c(Cl)c4)no3)ccc2[nH]1", "IC50": "< 200 nM"}
{"query-smiles": "O=c1ccc2cc(OCc3nnc(NCc4ccc5c(c4)OCO5)o3)ccc2[nH]1", "IC50": "1000 to 10000 nM"}
{"query-smiles": "Cc1ccc(Nc2nnc(COc3ccc4[nH]c(=O)ccc4c3)o2)cc1", "IC50": "201 to 1000 nM"}
{"query-smiles": "Clc1ccc(Nc2noc(CCc3ccc4[nH]ncc4c3)n2)cc1Cl", "IC50": "1000 to 10000 nM"}
{"query-smiles": "O=c1ccc2cc(OCc3cc(Nc4ccc(C(F)(F)F)cc4)no3)ccc2[nH]1", "IC50": "< 200 nM"}
{"query-smiles": "Oc1ccc(Cc2nnc(Nc3ccc(Cl)c(Cl)c3)o2)cc1", "IC50": "1000 to 10000 nM"}
{"query-smiles": "CCc1ccc(Nc2cc(COc3ccc4[nH]ncc4c3)on2)cc1", "IC50": "1000 to 10000 nM"}
{"query-smiles": "Fc1cc(Nc2noc(CCc3cccc4[nH]ncc34)n2)ccc1Cl", "IC50": "1000 to 10000 nM"}

IC50 reading for Clc1ccc(Nc2noc(COc3ccc4[nH]ncc4c3)n2)cc1Cl : > 10000 nM

Reference for the values: patent US8722670B2
